Every entry's value here was drawn from paper PMC5867641.

- assayed-system: PTP1B (Homo sapiens, UniProt P18031)
- test-name: PTP1B inhibition assay with p-nitrophenyl phosphate (pNPP) as substrate
readout: IC50 (µM)

molecule="CCc1ccc(-c2noc(Cc3c[nH]c4ccccc34)n2)cc1 [10e]" numeric_readout=16.8
molecule="CCc1ccc(-c2nc(Cc3c[nH]c4ccccc34)no2)cc1 [14a]" numeric_readout=13.5

----------
- assayed-system: PTP1B (Homo sapiens, UniProt P18031)
- Sequence (P18031 1-435): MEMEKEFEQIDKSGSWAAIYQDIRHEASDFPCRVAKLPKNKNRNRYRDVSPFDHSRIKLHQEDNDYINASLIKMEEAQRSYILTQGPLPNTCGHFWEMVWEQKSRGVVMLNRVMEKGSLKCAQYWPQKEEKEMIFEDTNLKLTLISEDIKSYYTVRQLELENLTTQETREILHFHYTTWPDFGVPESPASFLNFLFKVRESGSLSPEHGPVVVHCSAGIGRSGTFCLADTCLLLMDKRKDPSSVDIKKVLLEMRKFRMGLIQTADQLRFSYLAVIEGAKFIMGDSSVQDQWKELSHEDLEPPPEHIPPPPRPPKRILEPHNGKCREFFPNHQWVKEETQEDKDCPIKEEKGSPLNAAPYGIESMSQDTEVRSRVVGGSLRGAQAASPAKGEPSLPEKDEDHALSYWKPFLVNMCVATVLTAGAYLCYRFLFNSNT
- test-name: PTP1B inhibition assay with p-nitrophenyl phosphate (pNPP) as substrate
- condition-parameters: screened at 20 μM
readout: PTP1B inhibitory activity, in words

compound="Fc1ccccc1-c1nc(Cc2c[nH]c3ccccc23)no1 [14d]" readout="PTP1B inhibitory activity, in words" result="no activity"
compound="COc1ccc(-c2nc(Cc3c[nH]c4ccccc34)no2)cc1 [14f]" readout="PTP1B inhibitory activity, in words" result="no activity"
